Molecular target: recombinant human ATX beta isoform with N-terminal purification tag (human, UniProt Q13822 49-863)
Test: Fab-His ELISA
EXPERIMENTAL ENDPOINT: fold above background

Note fold above background for the binder shown: Fab F116 (VH H108, VL L100) (Fab, V domains shown, Soluble Fab-His) VH: QVQLVQSGAEVKKPGSSVKVSCKASGGTFSSYAISWVRQAPGQGLEWMGGIIPIFGTANYAQKFQGRVTITADESTSTAYMELSSLRSEDTAVYYCARSDLNNVSTVLDYWGQGTLVTVSS VL: DIQMTQSPSSLSASVGDRVTITCRASQSIGKVLNWYQQKPGKAPKLLIYGASSLQSGVPSRFSGSGSGTDFTLTISSLQPEDFATYYCQQPISTPLTFGQGTKVEIK
≥ 6 fold

Note fold above background for the binder shown: Fab F102 (VH H2, VL L91) (Fab, V domains shown, Soluble Fab-His) VH: QVQLVQSGAEVKKPGSSVKVSCKASGGTFSSYAISWVRQAPGQGLEWMGGIIPIFGTANYAQKFQGRVTITADESTSTAYMELSSLRSEDTAVYYCARDDLPLGRLDYWGQGTLVTVSS VL: EIVLTQSPATLSLSPGERATLSCRASQSVADWLAWYQQKPGQAPRLLIYKASNRATGIPARFSGSGSGTDFTLTISSLEPEDFAVYYCQQSFRWPLTFGQGTKVEIK
≥ 6 fold
